Below, each of the compounds is paired with its reported pIC50 value.
target.or.system: human recombinant GST cleaved CSNK1D (Homo sapiens, UniProt P48730)
Construct: GST (cleaved yes)
Sequence (P48730 whole entry): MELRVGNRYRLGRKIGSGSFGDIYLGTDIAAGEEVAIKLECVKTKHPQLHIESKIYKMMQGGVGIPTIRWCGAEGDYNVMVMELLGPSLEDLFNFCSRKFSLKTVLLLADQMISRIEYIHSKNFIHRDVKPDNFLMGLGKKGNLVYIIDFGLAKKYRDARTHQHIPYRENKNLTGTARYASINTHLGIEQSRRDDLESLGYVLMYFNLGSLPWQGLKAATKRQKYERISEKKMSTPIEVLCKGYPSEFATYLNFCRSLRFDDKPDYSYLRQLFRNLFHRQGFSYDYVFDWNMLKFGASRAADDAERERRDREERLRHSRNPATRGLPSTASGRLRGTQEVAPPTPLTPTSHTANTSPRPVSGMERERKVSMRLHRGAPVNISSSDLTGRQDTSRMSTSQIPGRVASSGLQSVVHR
method.notes: Purified Enzyme Assay (ADP-Glo CSNK1D Kinase Assay)
condition.details: 2 nM CSNK1D; peptide substrate 150 μM; ATP 20 μM; 45 minutes at room temperature
pIC50: −log10 of the molar value.

compound	target.or.system	pIC50
Fc1ccc(-c2nn3c(c2-c2c(F)cnc4[nH]ncc24)CC[C@H]2[C@@H]3C2(F)F)nc1 (single isomer, unassigned)	human recombinant GST cleaved CSNK1D (Homo sapiens, UniProt P48730)	8.40
Cc1nc2[nH]ncc2c(-c2c(-c3ccc(F)cn3)nn3c2CO[C@@](C)(C(F)(F)F)C3)c1F (single isomer, unassigned)	human recombinant GST cleaved CSNK1D (Homo sapiens, UniProt P48730)	8.52
Fc1ccc(-c2nn3c(c2-c2ccnc4[nH]ccc24)COCC3)nc1	human recombinant GST cleaved CSNK1D (Homo sapiens, UniProt P48730)	8.00

* * *

target.or.system: human CSNK1D (Homo sapiens, UniProt P48730)
Construct: expressed in transfected cells
Sequence (P48730 whole entry): as above
method.notes: Whole Cell nBRET CSNK1D Binding Assay
condition.details: living CHO cells stably expressing human CSNK1D tagged with nanoluciferase; NanoBret tracer 130 nM; 2 hours at 37 C
pIC50: −log10 of the molar value.
test.readout: pIC50

smiles	observed
Fc1cnc(-c2nn3c(c2-c2ccnc4[nH]ncc24)OCCC3)c(F)c1	6.86
Fc1ccc(-c2nn3c(c2-c2c(F)cnc4[nH]ncc24)CC(F)(F)CC3)cc1	7.19
CC1(C)COc2c(-c3ccn4nccc4c3)c(-c3ccc(F)cn3)nn2C1	7.15

* * *

Below, each of the compounds is paired with its reported pIC50 value.
target.or.system: human CSNK1D (Homo sapiens, UniProt P48730)
method.notes: Whole Cell nBRET CSNK1D Binding Assay
condition.details: living CHO cells stably expressing human CSNK1D tagged with nanoluciferase; NanoBret tracer 130 nM; 2 hours at 37 C
pIC50: −log10 of the molar value.
test.readout: pIC50

compound	operator	observed
Fc1ccc(-c2nn3c(c2-c2ccnc4[nH]ncc24)CCC2C3C2(F)F)nc1 (racemic)	=	7.19
Fc1ccc(-c2nn3c(c2-c2ccnc4[nH]ncc24)[C@H]2CC[C@@H]3C2)nc1 (single isomer, unassigned)	=	6.49
Fc1ccc(-c2nn3c(c2-c2ccnc4cn[nH]c24)OCC(F)(F)C3)cc1	=	6.73
Cc1cc(-c2c(-c3ccc(F)cc3)nn3c2CC2(C3)CC2(F)F)c2cn[nH]c2n1 (single isomer, unassigned)	=	6.55
Cn1cc2c(-c3c(-c4ccc(F)cn4)nn4c3COC(C)(C)C4)ccnc2n1	<	5.00
Cc1cc(-c2c(-c3ccc(F)cc3)nn3c2[C@@H]2C[C@@H]2C3)c2cn[nH]c2n1 (relative stereo)	=	8.22
CC1(C)CCc2c(-c3c(F)cnc4[nH]ncc34)c(-c3ccc(F)cn3)nn2C1	=	7.32
Fc1ccc(-c2nn3c(c2-c2ccnc4[nH]ncc24)OCC(F)(F)C3)cc1	=	7.68
CC1(C)Cn2nc(-c3ccc(F)cn3)c(-c3ccnc(NC(=O)C4CC4)c3)c2CO1	=	8.15
CC1(C(F)(F)F)Cn2nc(-c3ccc(F)cc3)c(-c3ccn4nccc4c3)c2CO1 (single isomer, unassigned)	=	7.12
CC1(C)COCc2c(-c3ccnc4[nH]ncc34)c(-c3ccc(F)cc3)nn21	=	6.70
Cc1nc2[nH]ncc2c(-c2c(-c3ccc(F)cn3)nn3c2CC[C@H]2[C@@H]3C2(F)F)c1F (single isomer, unassigned)	=	7.40

* * *

Below, each of the compounds is paired with its reported pIC50 value.
target.or.system: human CSNK1D (Homo sapiens, UniProt P48730)
method.notes: Whole Cell nBRET CSNK1D Binding Assay
condition.details: living CHO cells stably expressing human CSNK1D tagged with nanoluciferase; NanoBret tracer 130 nM; 2 hours at 37 C
pIC50: −log10 of the molar value.
test.readout: pIC50

compound	test.readout	observed
Fc1ccc(-c2nn3c(c2-c2ccn4nccc4c2)C[C@H](F)C3)cc1	pIC50	7.32
Cc1n[nH]c2nc(C(F)F)cc(-c3c(-c4ccc(F)cc4)nn4c3COC(C(F)(F)F)C4)c12 (single isomer, unassigned) [Example 375]	pIC50	6.96
CC1(C)Cn2nc(-c3ccc(F)cn3)c(-c3ccnc4ccsc34)c2CO1	pIC50	5.88
[2H]C([2H])([2H])C1(C([2H])([2H])[2H])Cn2nc(-c3ccc(F)cn3)c(-c3cc(C)nc4[nH]ncc34)c2CO1	pIC50	7.37
Fc1ccc(-c2nn3c(c2-c2ccnc4[nH]ncc24)COCC3)cc1	pIC50	7.43
Cc1cc(-c2c(-c3ccc(F)cn3)nn3c2CCC2CC23)c2cn[nH]c2n1 (racemic)	pIC50	7.24
Cc1cc(-c2c(-c3ccc(F)cn3)nn3c2OC(C)CC3)c2cn[nH]c2n1 (single isomer, unassigned)	pIC50	7.25
Fc1ccc(-c2nn3c(c2-c2ccnc4[nH]ncc24)COC2(C3)CC2(F)F)nc1 (single isomer, unassigned) [Example 433]	pIC50	7.10
Fc1ccc(-c2nn3c(c2-c2c(F)cnc4[nH]ncc24)COC2(C3)CC2(F)F)nc1 (single isomer, unassigned) [Example 435]	pIC50	7.31
[2H]C([2H])([2H])C1(C([2H])([2H])[2H])Cn2nc(-c3ccc(F)cn3)c(-c3cc(C(F)F)nc4[nH]ncc34)c2CO1	pIC50	7.12
Fc1ccc(-c2nn3c(c2-c2ccnc4[nH]ncc24)OCC2(C3)CC2(F)F)nc1 (single isomer, unassigned) [Example 479]	pIC50	5.88
[2H]C([2H])([2H])[C@]1(C(F)(F)F)Cn2nc(-c3ccc(F)cn3)c(-c3cc(C)nc4[nH]nc(C)c34)c2CO1 (single isomer, unassigned)	pIC50	7.12
Cc1cc(-c2c(-c3ccc(F)cn3)nn3c2CCC(F)(F)C3)c2cn[nH]c2n1	pIC50	6.77

* * *

target.or.system: human CSNK1D (Homo sapiens, UniProt P48730)
method.notes: Whole Cell nBRET CSNK1D Binding Assay
condition.details: living CHO cells stably expressing human CSNK1D tagged with nanoluciferase; NanoBret tracer 130 nM; 2 hours at 37 C
In this scheme, each record receives a class according to its IC50; the ranges are class 0 = under 40 nM, class 1 = from 40 nM up to 400 nM, class 2 = 400 nM and over

compound	discrete.label
CC1(C)Cn2nc(-c3ccc(F)cn3)c(-c3ccnc(NC(=O)c4ccccc4)c3)c2CO1	class 0
Fc1ccc(-c2nn3c(c2-c2ccnc4[nH]ncc24)CC[C@@H]2[C@H]3C2(F)F)cc1 (stereo in doubt)	class 0
Fc1ccc(-c2nn3c(c2-c2c(F)cnc4[nH]ncc24)OC[C@@H]2C[C@@H]2C3)nc1 (stereo in doubt)	class 1
C[C@@H]1OCc2c(-c3ccnc4[nH]ncc34)c(-c3ccc(F)cc3)nn2[C@H]1C (single isomer, unassigned)	class 1
Fc1ccc(-c2nn3c(c2-c2ccnc4[nH]ncc24)OCC2(CC2)C3)cc1	class 0
Fc1ccc(-c2nn3c(c2-c2ccnc4[nH]ncc24)CCCC3)nc1	class 1
CC1(CC2COC2)CCc2c(-c3ccnc4[nH]ncc34)c(-c3ccc(F)cn3)nn2C1 (single isomer, unassigned) [Example 321]	class 0
O=C1OCCn2nc(-c3ccc(F)cc3)c(-c3ccnc4[nH]ncc34)c21	class 2
Cc1cc(-c2c(-c3ccc(F)cn3)nn3c2CC(C)(C)C3)c2cn[nH]c2n1	class 0
C[C@@H]1CCn2nc(-c3ccc(F)cn3)c(-c3ccnc4[nH]ncc34)c2O1 (single isomer, unassigned)	class 1
Fc1ccc(-c2nn3c(c2-c2ccnc4[nH]ncc24)[C@H]2CC[C@@H]3C2)cc1 (single isomer, unassigned)	class 0
COCC1(F)CCc2c(-c3cc(C)nc4[nH]ccc34)c(-c3ccc(F)cn3)nn2C1 (single isomer, unassigned) [Example 298]	class 0
Cc1cc(-c2c(-c3ccc(F)cn3)nn3c2CO[C@@H](C)C3)c2cn[nH]c2n1 (single isomer, unassigned) [Example 89]	class 1
CC1(CC2COC2)CCc2c(-c3ccnc4[nH]ncc34)c(-c3ccc(F)cn3)nn2C1 (single isomer, unassigned) [Example 320]	class 1
c1csc(-c2nn3c(c2-c2ccnc4[nH]ncc24)CCCC3)n1	class 2
Fc1ccc(-c2nn3c(c2-c2ccncc2)COCC3)nc1	class 2
CC(=O)Nc1cc(-c2c(-c3ccc(F)cn3)nn3c2CC[C@@H]2[C@H]3C2(F)F)ccn1 (stereo in doubt)	class 2
Cc1nc2[nH]nc(C)c2c(-c2c(-c3ccc(F)cn3)nn3c2C[C@@H]2C[C@@H]23)c1F	class 1
C[C@H]1COCc2c(-c3ccnc4[nH]ncc34)c(-c3ccc(F)cc3)nn21 (single isomer, unassigned)	class 1
CC1(C)COc2c(-c3ccnc4cc[nH]c34)c(-c3ccc(F)cn3)nn2C1	class 2
CC(=O)Nc1cc(-c2c(-c3ccc(F)cn3)nn3c2CC[C@@H]2C[C@@H]23)ccn1 (stereo in doubt)	class 0
CC1COc2c(-c3ccnc4ccsc34)c(-c3ccc(F)cn3)nn2C1 (stereo not shown)	class 1
CCn1ncc2cc(-c3c(-c4ccc(F)cc4)nn4c3COCC4C)cnc21 (stereo not shown)	class 2
Cc1cc(-c2c(-c3ccc(F)cn3)nn3c2CC(F)C3)c2cn[nH]c2n1 (stereo not shown)	class 2
